target: RAF kinases (Homo sapiens); test: biochemical
Structures can show the parent of a compound that is named as a salt.
Quick reference for Kd among some compounds

In [3]: df
Out[3]:
                                   compound                 studysystem   valuereported
0  COCCOc1cc2ncnc(Sc3cccc(NC(=O)Nc4cc(C(C)(CF)CF)on4)c3)c2cc1OC  RAF kinases (Homo sapiens)  500 to 1000 nM
1  COc1cc2ncnc(Oc3cccc(NC(=O)Nc4cc(C5(C(F)(F)F)CC5)nn4-c4ccccc4)c3)c2cc1OC  RAF kinases (Homo sapiens)       > 1000 nM
2  COc1cc2ncnc(Oc3cccc(NC(=O)Nc4cc(C(C)(CF)CF)on4)c3)c2cc1OC  RAF kinases (Homo sapiens)   250 to 500 nM

## Input Check the records and state Kd for COc1cc2c(Oc3cccc(NC(=O)Nc4cc(C(C)(C)C)on4)c3)ncnc2cc1O[C@H]1CCNC1 [Ex 96, dihydrochloride]
## Output 250 to 500 nM

###

target: RAF kinases (Homo sapiens, UniProt P04049); details: read-out: RAF1 Kd; RAF1
Sequence (P04049 whole entry): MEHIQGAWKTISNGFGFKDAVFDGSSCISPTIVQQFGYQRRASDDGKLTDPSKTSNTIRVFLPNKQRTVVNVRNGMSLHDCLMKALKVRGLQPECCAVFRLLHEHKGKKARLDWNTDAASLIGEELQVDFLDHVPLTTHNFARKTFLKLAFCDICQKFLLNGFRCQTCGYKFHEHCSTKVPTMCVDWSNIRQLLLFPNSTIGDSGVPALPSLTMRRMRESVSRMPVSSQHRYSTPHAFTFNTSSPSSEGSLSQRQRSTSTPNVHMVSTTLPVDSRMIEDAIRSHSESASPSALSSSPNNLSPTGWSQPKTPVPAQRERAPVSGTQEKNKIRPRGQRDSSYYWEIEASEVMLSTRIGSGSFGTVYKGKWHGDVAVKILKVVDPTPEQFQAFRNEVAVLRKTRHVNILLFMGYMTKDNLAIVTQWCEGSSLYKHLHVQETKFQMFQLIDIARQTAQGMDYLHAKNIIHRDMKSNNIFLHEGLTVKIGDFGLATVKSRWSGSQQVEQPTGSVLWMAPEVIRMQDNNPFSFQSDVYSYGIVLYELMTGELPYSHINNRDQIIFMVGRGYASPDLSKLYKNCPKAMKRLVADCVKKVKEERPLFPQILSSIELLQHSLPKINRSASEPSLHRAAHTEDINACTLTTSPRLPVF
Quick reference for Kd among some molecules

// worked examples, Kd included
In [3]: df
Out[3]:
                                   molecule                               studysystem  valuereported
0  COc1cc2ncnc(Oc3cccc(NC(=O)Nc4cc(C(C)C)nn4-c4cccnc4)c3)c2cc1OC [Ex 350]  RAF kinases (Homo sapiens, UniProt P04049)       < 250 nM
1  COc1cc2ncnc(Oc3cccc(NC(=O)Nc4cc(C(C)(C)C)nn4-c4cccc(F)c4)c3)c2cc1OC [Ex 359]  RAF kinases (Homo sapiens, UniProt P04049)      > 1000 nM
2  COCCOc1cc2ncnc(Oc3cccc(NC(=O)Nc4cc(C(F)(F)F)nn4-c4ccc(C)cc4)c3)c2cc1OC [Ex 227]  RAF kinases (Homo sapiens, UniProt P04049)      > 1000 nM
3  COCCOc1cc2ncnc(Sc3cccc(NC(=O)Nc4cc(C(C)C)on4)c3)c2cc1OC [Ex 232]  RAF kinases (Homo sapiens, UniProt P04049)       < 250 nM

## Input Write down measured Kd (RAF kinases (Homo sapiens, UniProt P04049)) for this molecule. COc1cc2ncnc(Oc3cc(NC(=O)Nc4cc(C(C)(C)C)on4)c(F)cc3F)c2cc1OC [Ex 270]
## Output < 250 nM

## Input Write down measured Kd (RAF kinases (Homo sapiens, UniProt P04049)) for this molecule. COc1cc2ncnc(Sc3cccc(NC(=O)Nc4cc(C(C)(C)C)nn4-c4ccc(Cl)cc4)c3)c2cc1OC [Ex 366]
## Output > 1000 nM

## Input Write down measured Kd (RAF kinases (Homo sapiens, UniProt P04049)) for this molecule. COc1cc2ncnc(Sc3cccc(NC(=O)Nc4cc(C5(C(F)(F)F)CC5)on4)c3)c2cc1OC [Ex 378]
## Output < 250 nM

## Input Write down measured Kd (RAF kinases (Homo sapiens, UniProt P04049)) for this molecule. COc1cc2ncnc(Sc3cccc(NC(=O)Nc4cc(C(F)(F)F)no4)c3)c2cc1OC [Ex 382]
## Output < 250 nM

###

biological target: RAF kinases (Homo sapiens, UniProt P15056, V600E); assay: biochemical
Sequence (P15056 whole entry V600E): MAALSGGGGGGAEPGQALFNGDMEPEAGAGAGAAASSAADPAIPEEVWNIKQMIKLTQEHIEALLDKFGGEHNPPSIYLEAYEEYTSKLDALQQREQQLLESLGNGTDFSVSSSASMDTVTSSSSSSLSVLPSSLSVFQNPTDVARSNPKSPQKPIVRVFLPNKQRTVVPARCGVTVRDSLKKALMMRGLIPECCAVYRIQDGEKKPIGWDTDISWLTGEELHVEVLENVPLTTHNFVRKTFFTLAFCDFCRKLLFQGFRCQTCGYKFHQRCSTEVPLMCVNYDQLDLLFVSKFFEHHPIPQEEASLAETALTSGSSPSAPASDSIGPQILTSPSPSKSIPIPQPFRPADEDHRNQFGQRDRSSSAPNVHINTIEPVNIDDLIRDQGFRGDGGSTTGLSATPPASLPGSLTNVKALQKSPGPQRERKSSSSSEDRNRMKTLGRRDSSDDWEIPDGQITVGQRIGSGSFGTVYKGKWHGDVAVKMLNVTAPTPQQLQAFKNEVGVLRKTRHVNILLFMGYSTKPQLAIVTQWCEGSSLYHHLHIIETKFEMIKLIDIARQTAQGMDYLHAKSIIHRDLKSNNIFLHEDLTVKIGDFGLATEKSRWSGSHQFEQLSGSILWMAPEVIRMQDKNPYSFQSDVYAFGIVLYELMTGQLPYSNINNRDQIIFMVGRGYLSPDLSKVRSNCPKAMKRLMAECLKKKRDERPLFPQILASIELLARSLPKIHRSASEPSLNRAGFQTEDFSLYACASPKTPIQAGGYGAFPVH
Quick reference for Kd among some compounds

// worked examples, Kd included
>>> print(df.to_string())
                       smilesrepresentation  testreadout   valuereported
0  COc1cc2ncnc(Oc3cc(NC(=O)Nc4cc(C(C)(C)C)on4)ccc3Cl)c2cc1OC           Kd  500 to 1000 nM
1  COc1cc2ncnc(Sc3cccc(NC(=O)Nc4cc(C5(C(F)(F)F)CCC5)no4)c3)c2cc1OC           Kd  500 to 1000 nM
2  COCCOc1cc2ncnc(Oc3cccc(NC(=O)Nc4cc(C(F)(F)F)nn4-c4ccccc4)c3)c2cc1OC           Kd   250 to 500 nM

## Input Check the records and state Kd for COc1cc2ncnc(Oc3cccc(NC(=O)Nc4cc(C(C)(C)C#N)no4)c3)c2cc1OC
## Output < 250 nM

## Input Check the records and state Kd for COCCOc1cc(NC(=O)Nc2cccc(Oc3ncnc4cc(OC)c(OC)cc34)c2)cc(C(F)(F)F)c1
## Output 250 to 500 nM

## Input Check the records and state Kd for COCCOc1cc2ncnc(Oc3cccc(NC(=O)Nc4cc(C(=O)N5CCOCC5)cc(C(F)(F)F)c4)c3)c2cc1OC
## Output 250 to 500 nM

## Input Check the records and state Kd for COCCOc1cc2ncnc(Oc3cccc(NC(=O)Nc4ccc(C(F)(F)F)c(F)c4)c3)c2cc1OC
## Output 250 to 500 nM

###

biological target: RAF kinases (Homo sapiens); conditions: read-out: BRAF WT Kd; BRAF WT
testReadout: Kd

// worked examples, Kd included
In [3]: df
Out[3]:
                                   compound  valuereported
0  COc1cc2ncnc(Oc3cccc(NC(=O)Nc4cc(C(C)(C)C)nn4-c4ccc(C)cc4)c3C)c2cc1OC [Ex 288]      > 1000 nM
1  COCCOc1cc2ncnc(Sc3cccc(NC(=O)Nc4cc(C(F)(F)F)n(-c5ccccc5)n4)c3)c2cc1OC [Ex 244]      > 1000 nM
2  COc1cc2ncnc(Oc3cc(NC(=O)Nc4cc(C(C)(C)C)nn4-c4ccc(C)cc4)c(F)cc3F)c2cc1OC [Ex 272]      > 1000 nM
3  COc1cc2ncnc(Sc3cccc(NC(=O)Nc4cc(C(C)(C)C)nn4-c4cccc(C(F)(F)F)c4)c3)c2cc1OC [Ex 380]      > 1000 nM
4  COc1cc2ncnc(Oc3cccc(NC(=O)Nc4cc(C(C)(C)F)no4)c3)c2cc1O [Ex 258]       < 250 nM

## Input Check the records and state Kd for COc1cc2ncnc(Oc3cc(NC(=O)Nc4cc(C(C)(C)C(F)(F)F)on4)ccc3F)c2cc1OC [Ex 266]
## Output < 250 nM

## Input Check the records and state Kd for COc1cc2ncnc(Oc3cc(NC(=O)Nc4cc(C(C)(C)C)on4)c(F)cc3F)c2cc1OC [Ex 270]
## Output < 250 nM

## Input Check the records and state Kd for COc1cc2c(Oc3cccc(NC(=O)Nc4cc(C(C)(C)F)no4)c3)ncnc2cc1OCCN1CCOCC1 [Ex 251]
## Output < 250 nM

###

biological target: RAF kinases (Homo sapiens, UniProt P15056, V600E); experiment: biochemical
pKd: −log10 of the molar value.
testReadout: pKd

// worked examples, pKd included
In [3]: df
Out[3]:
                                   compound  testreadout  valuereported
0  COc1cc2ncnc(Sc3cccc(NC(=O)Nc4cc(C(C)(C)C)nn4-c4ccc(C)cc4)c3)c2cc1OC [Ex 275]          pKd   6.30 to 6.60
1  COCCOc1cc2ncnc(Oc3cccc(NC(=O)Nc4cc(C(F)(F)F)nn4-c4ccc(C)cc4)c3)c2cc1OC [Ex 227]          pKd   6.00 to 6.30
2  COc1cc2ncnc(Oc3cccc(NC(=O)Nc4cc(C5(C(F)(F)F)CC5)nn4-c4ccc(C)cc4)c3)c2cc1OC [Ex 346]          pKd         > 6.60
3  COc1cc2ncnc(Oc3cccc(NC(=O)Nc4cc(C(C)(C)C)nn4-c4ccc(C)cc4)c3)c2cc1OC [Ex 274]          pKd   6.30 to 6.60
4  COc1cc2ncnc(Oc3cccc(NC(=O)Nc4cc(C(C)(C)F)no4)c3)c2cc1OC [Ex 126]          pKd         > 6.60

## Input Check the records and state pKd for COCCOc1cc(NC(=O)Nc2cccc(Oc3ncnc4cc(OCCOC)c(OC)cc34)c2)cc(C(F)(F)F)c1 [Ex 117]
## Output 6.30 to 6.60

###

biological target: RAF kinases (Homo sapiens); details: read-out: RAF1 Kd; RAF1
testReadout: Kd

>>> print(df.to_string())
                                   compound                 studysystem  valuereported
0  COc1cc2ncnc(Sc3cccc(NC(=O)Nc4cc(C(C)(C)C#N)no4)c3)c2cc1OC  RAF kinases (Homo sapiens)       < 250 nM
1  COCCOc1cc2ncnc(Sc3cccc(NC(=O)Nc4ccc(C(F)(F)F)c(OC)c4)c3)c2cc1OC  RAF kinases (Homo sapiens)      > 1000 nM
2  COCCOc1cc2ncnc(Oc3cccc(NC(=O)Nc4cc(C(F)(F)F)nn4-c4ccc(F)cc4)c3)c2cc1OC  RAF kinases (Homo sapiens)      > 1000 nM
3  COCCOc1cc2ncnc(Oc3cccc(NC(=O)Nc4cccc(C(C)(C)C#N)c4)c3)c2cc1OC  RAF kinases (Homo sapiens)       < 250 nM
4  COc1cc2ncnc(Sc3cccc(NC(=O)Nc4cc(C5(C(F)(F)F)CC5)nn4-c4ccccc4)c3)c2cc1OC  RAF kinases (Homo sapiens)      > 1000 nM
5  COc1cc2ncnc(Oc3cc(NC(=O)Nc4cc(C(C)(C)F)no4)c(F)cc3F)c2cc1OC  RAF kinases (Homo sapiens)       < 250 nM

# next compound below
## Input Check the records and state Kd for COc1cc2c(Oc3cccc(NC(=O)Nc4cc(C(C)(C)C(F)(F)F)on4)c3)ncnc2cc1O
## Output < 250 nM
